Each recorded value in this set is attributed to the nanobody polyreactivity screen of Harvey et al. (2022).

ASSAY_NOTES: yeast display, Sf9 membrane polyspecificity reagent, FACS + sequencing; frameworks hold sequencing errors
MEASURED_ATTRIBUTE: polyreactivity (PSR sort gate)

QVQLVESGGGLVQAGGSLRLSCAASGFTFYGYAMGWYRQAPGKERELVAGITSSGGSTHYADSVKGRFTISRDNAKNTVYLQMNSLKPEDTAVYYCAKVWSFPSNYRAYYYWGQGTQVTVSS    high polyreactivity
QVQLVESGGGLVQAGGSLRISCAASGFTFRNYAMGWYRQAPGKEREFVASISFAGGRTYYADSVKGRFTISRDNAKNTVYLQMNSLKPEDTAVYYCAKKSYSKYDYWGQGTQVTVSS    high polyreactivity
QVQLVESGGGLVQAGGSLRLSCAASGIIFTYYAMGWYRQAPGKERELVASISSSGTSTYYADSVKGRFTISRDNAKNTVYLQMNSLKPEDTAVYYCAADWTGSNGVDYWGQGTQVTVSS    low polyreactivity
QVQLVESGGGLVQAGGSLRLSCAASGNTFHSYVMGWYRQAPGKERELVAAITSGGSTYYADSVKGRFTISRDNAKNTVYLQMNSLKPEDTAVYYCAVDAWTGESYWEHYYWGQGTQVTVSS    low polyreactivity
QVQLVESGGGLVQAGGSLRLSCAASGRTFTYNTMGWYRQAPGKERELVAAISSRGGRTYYADSVKGRFTISRDNAKNTVYLQMNSLKPEDTAVYYCNADYRYPQYYHRTWIRYDYWGQGTQVTVSS    high polyreactivity

###

ASSAY_NOTES: yeast display, Sf9 membrane polyspecificity reagent, FACS + sequencing; frameworks hold sequencing errors
MEASURED_ATTRIBUTE: polyreactivity (PSR sort gate)

QVQLVESGGGLVQAGGSLRLSCAASGITFRRYAMGWYRKAPGTERELVATITRGDNTYYADSVKGRFTISRDNAKNTVYLQMNSLKPEDTAVYYCAKGWPTDDYDYWGQGTQVTVSS    high polyreactivity
QVQLVESGVGLVQAGGSLRLSCAASGFIFPTNTMGWYRQAPGKEREFVARITRSGTNTYYADSVKGRFTISRDNAKNTVYLQMNSLKPEDTAVYYCATRYYHFNYWGQATQVTVSS    high polyreactivity
QVQLVESGGGLVPAGGSLRLSCAASGFTFSYYAMGWYRQAPGKERELVAAISWSGGRTYYADSVKGRFTISRDNAKNTVYLEMNRLKPEDTAVYYCAVVYYGSIFVLEYDYWGQGTQVTVSS    high polyreactivity
QVQLVESGGGLVQAGGSLRLSCAASGSTFSRYAMGWYRQAPGKERELVAAISSRGGSTYYADSVKGRFTISRDNAKNTVYLQMNSLKPEDTAVYYCNALTSYQNHVYPYDYWGQGTQVTVSS    high polyreactivity

###

ASSAY_NOTES: yeast display, Sf9 membrane polyspecificity reagent, FACS + sequencing; frameworks hold sequencing errors
MEASURED_ATTRIBUTE: polyreactivity (PSR sort gate)

QVQLVESGGGLVQAGGSLRLSCASSGFIFAYNAMGWYRQAPGKERELVAAISRSGGSTRYADSVKGRFTISRDNAKNTVYLQMNSLIPEDTAVYYCAADWSDYWDWSWYDYWGQGTQVTVSS    high polyreactivity
QVQLVESGGGLVQAGGSLRLSCAASGFIFRYYAMGGYRQAPGKERELVAAISWSGVSTNYADSVKGRFTISRDNAKNTVYLQMNSLTPVDTAVYSCAADGTVRSLGRYYHWGQGTQVTVSS    low polyreactivity
QVQLVESGGGLVQAGGSLRLICAASGIIFGNNAMGRYRQAPGKERELVAAIRWSTGTTYYADSVKGRFTISRDNATNTVYLQMNSLKPEDTAVYYCAARLRREYGYWGQGTQVTVSS    high polyreactivity
QVQLVESGGGLVQAGGSLRLSCAASGSTFTYNAMGWYRQAPGKERELVAAIDRSVSTNYADSVKGRFTISRDNAKNTVYLQMNSLKPEDTAVYYCNARHPTDDIVIYDYWGQGTQVTVSS    low polyreactivity
QVQLEESGGGLVQAGGSLRLSCAASGRTFRRNAMGWYRQAPGKERELVADISNGDSTKYADSVKGRFTISRDNAKNTVYLQMHSLIPEDTAVYYCNAQRYRVVVYISHGWQTRNYWGQGTQVTVSS    low polyreactivity
QVQLVESGGGLVQAGGSLRLSCAASGFNLYPNAMGWYRQAPGKERELGAAITESDGITYYADSVKGRFTISRDNAKYTVYLQMNSLKPEDTAVYYCNTGFSYTYDYWGQGTQVTVSS    low polyreactivity
QVQLVETGGGLVQAGGSLRLSCAASGSTFYRNTKGCYRQAPGKEREFVAGISDRGTSTYYADSVKGRFTISRDNAKNTVYLQMNSLKPEDTAVYYCNKRSWPAYVHKYDYWGQGTQVTVSS    low polyreactivity
QVQLVESGGGLVQAGGSLRLSCAASGLNFYRYPMGWNRQAPGKERELVAAITRNGGSTYYADSVKGRFTISRDNANNTVYLQMNSLKPEDIAVYYCAADLYSAVYFSRWSDYWGQGTQVTVSS    high polyreactivity
QVQLVESVGGLVQAGGSLRLSCAASGRIFHRYTMGWYRQAPGKEREFVAAITTRAGSTYYADSVKGRFTISRDNAKNTVYLQMNSLKPEDTAVYYCNIRRHSLYGGTTTRYDYWGQGTQVTVSS    high polyreactivity
QVQLVESAGGLVQAGGSLRLSCAASGRIYGQNAMGWYRQAPGKERELVAAITGSGGRTYYADSVKGRFTISRDNAKNTVYLQMNSLKPEESAVYYSAVRVTSYYRTMDYWGQGTQVTVSS    low polyreactivity
QVQLVESGRGLVQAGASLRLSCAASGSTFYVNAMGWYRQAPGKERELVAAITSTGTTHYADSVKGRFTISRDNAKNTVYLQMNSLKPEDTAVYYCAAYSRYQSRRYYYWGQGTQVTVSS    high polyreactivity
QFQLVESGGGLDQAGGSLRLSCAASGRTFCNNAMGSYRQAAGKETELFAAISVLGGSTYYADSVKGRFTISRDNAKYTVFLQMNSLKPEDTAVYYCATRSRGWIAPPWQGSDGLYYWGQGTQVTVSS    low polyreactivity
QVQLVESGRRLVQAGGSLRLSCAASGINFDSYAMGWYRQAPGKERELVAAITSDSGRTYYADSVTGRFTISRDNAKNTVYLQMNSVKPEDTPVYYCAKRWDGPYDYWGQGTQVTVSS    low polyreactivity
QVQLVESGGGLVQAGGSLRLSCAASGFTFYANAMGWYRQAPGKERELVAAISKSGGRTYYADSVKGRFTISRDNAKNTVYLQMNSLKPEDTAVYYCAAVGSVNYEADFDYWGQGTQVTVSS    high polyreactivity
QVQLVESGGGLVLAGGSLRLSCAASGSIFSLYAMGWYRQAPGKEREVVAALSRGGSTNYADSVKGRFTISRDTAKNTVYLQMNCLKPEDTAVYYSNAGFGVRRKHITVYTWYDYWGQGTQVTVSS    low polyreactivity
QVQLVESGGGLVQAGGSLRLSCAASGGTFPYNAMGWYRQAPGTERELVAVITSGDGTYYADSVKGRFTNSRDNAKNTVYLQMNSLKPEDTAVDYCAAVIFWDVPYDYWGQGTQVTVSS    low polyreactivity
QVQLVESGGGLVQAGGSLRLSCAASGFTFRAYTMGWYRQAPGKERELVAAITYSGGRTYYADSVKGRFTISRDNAKNTVYLQMNSLKPEDTAVYYCATRGWALSEYYYWGQGTQVTVSS    high polyreactivity
QVQLVESGGGLVQAGGSLRLSCAASGRIFPTYAMGWSRQAPGKERELVAAISRRTTRTYYADSVKGRFTISRDNAKNTVYLQMNSLKPEDTAVYYCAARLYSSVVRYRYGYWGQGTQVTVSS    high polyreactivity
QVQLVESGGGLVQAGGSLRLSCAASGFIFRKYAMGWYRHAPGKETELVAAITRNGGRTYYADSVKGRFTISRDNAKYTVYLQMNSLKPEDTAVFYCNRRGQYTFWPIHEYWGQGTQVTVSS    high polyreactivity
QVQLVESGGGLVQAGGSLRLSCAASGFIFWFNDMGWYRQAPGKERELVATISWSDTSTYYADSVKGRFTISRDNAKNTVYLQMTSLKPEDTAVYYCATDGRETCLPEYYWGQGTQVTVSS    low polyreactivity
QVQLVESGGGLVQAGGSLRLSCAASGSTFKFNDMGWYRQAPGKERELVAAISRGGRTNYADSVKGRFTISRDNAKNTVYLQMNSLKPEDTAVYYCAADYSTLYKYDYWGQGTQVTVSS    low polyreactivity

###

ASSAY_NOTES: yeast display, Sf9 membrane polyspecificity reagent, FACS + sequencing; frameworks hold sequencing errors
MEASURED_ATTRIBUTE: polyreactivity (PSR sort gate)

QVQLVESGGGLVQAGGSLRLSCAASGRIIRKNTMGWYRQAPGKERELVAAIRWSTTSTYYADSVKGRFTISRDNAKNTVYLQMHSLKPEDTAVYYCAARRRDSYGNIYDYWGQGTQVTVSS    high polyreactivity
QAQLVESGGGLVQEGGSLRLSCAASGSIFYGYAMGWSRQAPGKERELVATIRFITGSTYYADSVKGRFTISRDNAKNTVYLQMNSLKPEDTAVYYCAAVYVGYYDNYDYWGQGTQVTVSS    low polyreactivity
QVQLVESGGGLVQAGGSLRLSCAASGFIFWSYAMGWYRQERGNEREWVAAISWSGGRTYYADSVKGRFTISRDNAKNTVYLQMNSLKPEDTAVYYCAAVKRDSSQYPALDYWGQGTQVTVSS    high polyreactivity
QVQLVESGGGLVQAGGSLRLSCASSGYTFRYYAMGWYRQAPGKERELVAAITRRGATTYYADSVKGRFTISRDNAKNTVYLQMNRLQPEDTADYYCNAVYQYGSFVTAAGNYWGQGTQVTVSS    high polyreactivity
QVQLVESGGGLFQAGGSLRLSSAASGSIFINNGMGWYRQAPGKESELVAAIYSGGSTYADSVKGRFTISRDNAKNTVYLQMNSLKPEDTAVYYCAVDVWLRGLYGYEYDYWGQGTQVTVSS    low polyreactivity
QVQLVESGGGLVQAGGSLRLSCAASGRIFYSYTMGWYRQAPGKERELVAGINRSVGSTYYADSVKGRFTISRDNAKNTVYLQMNSLKPEDTAVYYCAAGSRRRSYYTFSSVHGHYYWGQVTQVTVSS    high polyreactivity
QVQIVESGGGLVQAGGSLRLSCAASGFTFYGYAMGLYRQAPGKERELVATISGRGGRTYYADSVKGLFTISRDNAKNTVYLQMNSLKPVDTAVYFCAAVSSYRYYGDYYWGQGTQVTVSS    high polyreactivity
QVQLVESGGGLVQAGGSLRLSCAASGRIFIAYAMGWYRQAPGKERELVAAITDDGGTNYADSVKGRFTISRDNAKNTVYLQMNSLKPEDTAVYYCAATYLIGYYYVWEYDYWGQGTQVTVSS    low polyreactivity
HVQLVESGGGLVQAGGSLRISCAASGRTFYSYVMGWYRQAPGKQRQLVAAISSGGGRTYYADSVKGRFTISRDNAKHTVYLQMNSLKPEDTAVYYCNAVTRGTRWGLPYEYWGQGTQVTVSS    high polyreactivity
QVQLVESGGGLVQAGGSLRLSCAASGIIFRYYAMGWYRQAPGKERELVAGITSNGGSTYYADSVKGRFTISRDNAKNTVYLQMNSLKPVDTAVYYCAAVSLYVWWALEYWGQGTQVTVSS    high polyreactivity
QVQLVESGGGLVQAGGSLRLSCAASGFIFACYAMAWYRQAPGKERELVATISSSGARTYYADSVKGRFTISRDNAKNTVYLQMNSLKPEDTAVYYCSAAGRYRPVSPYSGYNYWGQGTQVTVSS    high polyreactivity
